# credit: PubChem BioAssay (NCI)

Tested on: MDA-MB-435 melanoma
Assay: NCI-60 one-dose screen, 48 h (100 = growth as untreated, 0 = no growth, -100 = all killed)
Settings: 10 µM
About 83,000 compounds went through this panel and 20% of them were active in at least one assay; those are over-represented in the sample as a whole.
endpoint name: growth (%)
Give just the number in %; leave the unit off.

Query: growth; subject: CC(=O)/C=C/c1ccc(OCc2ccc(C(C)(C)C)cc2)cc1 78.4

Param item: O=C(/C=C/c1cccc(Oc2ccc(Cl)cc2)c1)c1ccccc1 94.8

Param item: CC(=O)/C=C/c1ccc(N(C)Cc2ccc(C(C)(C)C)cc2)cc1 88.5

Param item: CC(=O)/C=C/c1ccc(N(CCO)Cc2ccc(C(C)(C)C)cc2)cc1 80.7

Param item: CC(=O)/C=C/c1ccc(OCc2ccc(Cl)cc2)cc1 94.5

Param item: COc1ccc(C(=O)/C=C/c2ccc(OCc3ccc(Cl)cc3)cc2)cc1OC 90.7

====

Tested on: SF-295 CNS
Test: NCI-60 one-dose screen, 48 h (100 = growth as untreated, 0 = no growth, -100 = all killed)
Settings: 10 µM unless noted
About 83,000 compounds went through this panel and 20% of them were active in at least one assay; those are over-represented in the sample as a whole.
Give measured growth for each item. Keep answers brief.
Give just the number in %; leave the unit off.

Query: growth; subject: Cc1cc2nc(C(Cl)Cl)nc(-c3ccc(Cl)cc3)n2n1 2.71

Param item: COc1ccc(-c2[nH]c3ccccc3c2-c2ccc(OC)cc2)cc1 50.2

Param item: C=C1C(=O)O[C@@H]2[C@H]3[C@H](COC(C)=O)[C@@H](OC(C)=O)C[C@H]3C(=C)[C@@H](O)C[C@@H]12 103

Param item: Cc1nc2sc(C(=O)Nc3cccc4ccccc34)c(N)c2cc1C(=O)/C=C/c1ccccc1 -30.7

Param item: CCOC(=O)c1nc2c3ccccc3cnn2c1C(=O)c1ccc(OC)cc1 98.7

Param item: CC[C@]12CN3CCc4c([nH]c5ccccc45)[C@@](C(=O)OC)(c4cc5c(cc4OC)N(C)[C@H]4[C@@](O)(C(=O)OC)[C@H](OC(C)=O)[C@]6(CC)C=CCN7CC[C@]54[C@@H]76)CC(C3)[C@H]1O2 (some centres undefined) -22.9

Param item: Nc1ccc(-c2nc3ccc4[nH]ncc4c3c3c2CCCC3)cc1F 37.8

Param item: O=C(/C=C/c1ccc(Cl)s1)c1ccc(Cl)s1 90.7

Param item: CCCCCCCCCCCCCCCC(=O)O[C@@H]1[C@@H](O)[C@@H](O)C([C@H](NC(=O)[C@@H]2C[C@@H](CCC)CN2C)[C@H](C)Cl)O[C@@H]1SC (some centres undefined) 104

Param item: Cc1cc(N2CCN(CC(=O)Nc3ccc4c(ccn4Cc4ccccc4)c3)CC2)nc(N2CCCCCC2)n1 44.4

Param item: O=C(CC1(O)C(=O)Nc2ccc(Br)cc21)c1ccc(Cl)cc1 (centres undefined) 106

Param item: O=c1c(/C=C/c2ccco2)nnc2sc(Nc3ccc(Cl)cc3)nn12 105

Param item: COc1ccc(-c2cc(-c3cccc(Cl)c3)c(C#N)c(=O)[nH]2)c(OC)c1 98.2

Param item: CN1Cn2c(ccc2C(F)(F)F)C(=O)CS1(=O)=O 103

Param item: O=C(CN1C(=O)S/C(=C\C(Cl)=C\c2ccccc2)C1=O)NC1C=CS(=O)(=O)C1 (centres undefined) 80.8

Param item: CCCCCCCCCCCCCCCC[N+](C)(C)CCN(Cc1ccc(OC)cc1)c1ncccn1 -90.6

Param item: N=C(N)c1ccc(-c2ccc(-c3ccc(Cl)c(Cl)c3)s2)cc1 35.5

Param item: CC12CCC(C(=O)CC1=O)C2(C)C (centres undefined) 100

Param item: O=C(Nc1ncc(Cc2cccc(C(F)(F)F)c2)s1)c1ccc(-n2cnnn2)cc1 32.2

====

Tested on: LOX IMVI melanoma
Test: NCI-60 one-dose screen, 48 h (100 = growth as untreated, 0 = no growth, -100 = all killed)
Details: 10 µM unless noted
About 83,000 compounds went through this panel and 20% of them were active in at least one assay; those are over-represented in the sample as a whole.
Give measured growth for each item. Keep answers brief.
Give just the number in %; leave the unit off.

I'm curious: which growth was measured for O=C(/C=C/c1ccc([N+](=O)[O-])cc1)c1ccccc1 tested on LOX IMVI melanoma? 61.4

Param item: CCOC(=O)CCCn1c(-c2ccccc2)cc(-c2ccccc2)c(C#N)c1=O 84.7

Param item: C/C(=C(\c1ccc(OCCN2CCOCC2)cc1)c1ccc(OC(=O)C2CCCCC2)cc1)c1ccc(Cl)cc1 102

Param item: COC(=O)/C=C1/SC(=Nc2ccc([N+](=O)[O-])cc2)N(CCc2c[nH]c3ccccc23)C1=O -9.3

Param item: CC[C@@H]1NC(=O)[C@H]([C@H](O)[C@H](C)C/C=C/c2ccc(CN3C(=O)C(C)=C(C)C3=O)cc2)N(C)C(=O)[C@H](C(C)C)N(C)C(=O)[C@H](CC(C)C)N(C)C(=O)[C@H](CC(C)C)N(C)C(=O)[C@@H](C)NC(=O)[C@H](C)NC(=O)[C@H](CC(C)C)N(C)C(=O)[C@H](C(C)C)NC(=O)[C@H](CC(C)C)N(C)C(=O)CN(C)C1=O 68.6

Param item: Cn1c(=O)c2c(nc(Nc3cc(=O)[nH]c(=O)[nH]3)n2Cc2ccccc2)n(C)c1=O 92.3

Param item: O=c1c(/C=C/c2ccco2)nnc2sc(Nc3ccc(Cl)cc3)nn12 97.6

Param item: CCN(CC)/C([O-])=c1\cccc\c1=C1\N=C(c2ccccc2)N=C1[n+]1ccc(-c2ccccc2)cc1 91.6

Param item: OB(O)c1ccsc1-c1nc2ccc3[nH]ncc3c2c2c1CCCC2 41.1

Param item: COc1cc(Nc2nc3ccccc3cc2C(=O)Nc2ccc(F)c(F)c2)cc(OC)c1OC 17.6

Param item: O=C(CCN1CCOCC1)Nc1cccc(-n2cc(-c3ccncc3)c(-c3ccc(Cl)c(O)c3)n2)c1 23.1

Param item: Cc1ccc(-c2nc3nc(-c4ccc(Br)cc4)nc(N4CCCNCC4)c3o2)cc1 -85.1

Param item: O=[N+]([O-])c1ccc2[nH]c3nccc(NCc4cccc(Cl)c4)c3c2c1 81.4

Param item: COc1ccc(C/C(C)=C(/c2ccc(OCCN3CCCC3)cc2)c2ccc(OC(=O)NCc3ccccc3)cc2)cc1 84.4

Param item: NCCOCCOc1ccccc1 102

Param item: CN(C)CCCn1c2c(c3ccc(N4CCNCC4)cc3c1=O)C(=O)c1ccccc1-2 -90

Param item: Cc1cnc(C(=O)NNc2nc3sc4c(c3c(=O)[nH]2)C(C)CCC4)cn1 (configuration not stated) 0.703

====

System: MDA-MB-231 breast
Assay: NCI-60 one-dose screen, 48 h (100 = growth as untreated, 0 = no growth, -100 = all killed)
Settings: 10 µM unless noted
The panel holds about 83,000 compounds, 20% with a hit somewhere; the sample as a whole holds those more often.
endpoint name: growth (%)
Give just the number in %; leave the unit off.

Query: growth; subject: COC1=CC(=O)C(OC)=C(O)C1=O 100

Param item: Cc1ccc(C(=O)c2ccc(CC(=O)N=Nc3c(O)[nH]c4ccc(OC(F)(F)F)cc34)n2C)cc1 92.4

Param item: C=C(C)[C@@H]1CC[C@]2(C(=O)N3CCN(C)CC3)CC[C@]3(C)[C@H](CC[C@@H]4[C@@]5(C)CC(CCCNC(C)=O)(CCCNC(C)=O)[C@H](OC(C)=O)C(C)(C)[C@@H]5CC[C@]43C)[C@@H]12 108

Param item: CCc1c2c(nc3ccc(OCc4ccc(B5OC(C)(C)C(C)(C)O5)cc4)cc13)-c1cc3c(c(=O)n1C2)COC(=O)[C@]3(O)CC 34.2

Param item: O=C1CCCCN1CCCCC#Cc1cccc(C#Cc2cccnc2)c1 65.3

Param item: C#Cc1cc(C(=O)Nc2ccc(CN3CCN(C)CC3)c(C(F)(F)F)c2)ccc1C 59.2

Param item: CCN1C(=O)N(c2ccccc2)C2NC(=S)N(/N=C/C=C/c3ccccc3)C21 (stereo not drawn) 15.7

Param item: Cc1ccc(Nc2nc(-c3cc(O)c(C)c(C)c3O)cs2)cc1 104

====

Tested on: HOP-62 NSCLC
Assay: NCI-60 one-dose screen, 48 h (100 = growth as untreated, 0 = no growth, -100 = all killed)
Conditions: 100 µM
The panel holds about 83,000 compounds, 20% with a hit somewhere; the sample as a whole holds those more often.
endpoint name: growth (%)
Give just the number in %; leave the unit off.

I'm curious: which growth was measured for CC(=O)/C=C/c1ccc(OCc2ccc(Cl)cc2)cc1 tested on HOP-62 NSCLC? 44.9

Param item: CCN(Cc1ccccc1)c1ccc(/C=C2\COc3ccccc3C2=O)cc1 56.8

Param item: O=C(/C=C/c1cccc(Oc2ccc(Cl)cc2)c1)c1ccccc1 -80.5

Param item: COc1ccc(C(=O)/C=C/c2ccc(OCc3cccc(C(F)(F)F)c3)c(OC)c2)cc1OC 5.03
